# method summary: activity coefficient (dimensionless); of the first substance listed, at infinite dilution; xn = mol fraction of the nth substance listed
# measurement parameters: 318.15 K; 101 kPa; Liquid; Chromatography; x1 = 0
observed property: activity coefficient
Number, no unit, nothing else.

- compound: "C1=CCCCC1 [cyclohexene] + C[N+]1(CCCO)CCOCC1.O=S(=O)([N-]S(=O)(=O)C(F)(F)F)C(F)(F)F"
  observed property: "activity coefficient"
  value observed: 23.7

Task item: Report measured activity coefficient; entry is C1COCCO1 [1,4-dioxane] + C[N+]1(CCCO)CCOCC1.O=S(=O)([N-]S(=O)(=O)C(F)(F)F)C(F)(F)F
Reply: 0.6

Task item: Report measured activity coefficient; entry is c1ccccc1 [benzene] + C[N+]1(CCCO)CCOCC1.O=S(=O)([N-]S(=O)(=O)C(F)(F)F)C(F)(F)F
Reply: 2.53

Task item: Report measured activity coefficient; entry is CCCCCCCCCC [decane] + C[N+]1(CCCO)CCOCC1.O=S(=O)([N-]S(=O)(=O)C(F)(F)F)C(F)(F)F
Reply: 624

Task item: Report measured activity coefficient; entry is COC(C)=O [methyl ethanoate] + C[N+]1(CCCO)CCOCC1.O=S(=O)([N-]S(=O)(=O)C(F)(F)F)C(F)(F)F
Reply: 0.926

Task item: Report measured activity coefficient; entry is CCC(=O)CC [pentan-3-one] + C[N+]1(CCCO)CCOCC1.O=S(=O)([N-]S(=O)(=O)C(F)(F)F)C(F)(F)F
Reply: 1.28

Task item: Report measured activity coefficient; entry is C=CCCCCC [1-heptene] + C[N+]1(CCCO)CCOCC1.O=S(=O)([N-]S(=O)(=O)C(F)(F)F)C(F)(F)F
Reply: 86.6

====

Attribute: activity coefficient
# method summary: activity coefficient (dimensionless); of the first substance listed, at infinite dilution; xn = mol fraction of the nth substance listed
# measurement parameters: 368.15 K; 101 kPa; Liquid; Chromatography; x1 = 0
Number, no unit, nothing else.

Task item: Report measured activity coefficient; entry is c1ccccc1 [benzene] + C[N+]1(CCCO)CCOCC1.O=S(=O)([N-]S(=O)(=O)C(F)(F)F)C(F)(F)F
Reply: 2.65

Task item: Report measured activity coefficient; entry is CCCC=O [butanal] + C[N+]1(CCCO)CCOCC1.O=S(=O)([N-]S(=O)(=O)C(F)(F)F)C(F)(F)F
Reply: 1.5

Task item: Report measured activity coefficient; entry is C1=CCCCC1 [cyclohexene] + C[N+]1(CCCO)CCOCC1.O=S(=O)([N-]S(=O)(=O)C(F)(F)F)C(F)(F)F
Reply: 16.2

Task item: Report measured activity coefficient; entry is c1ccncc1 [pyridine] + C[N+]1(CCCO)CCOCC1.O=S(=O)([N-]S(=O)(=O)C(F)(F)F)C(F)(F)F
Reply: 0.639

====

# method summary: activity coefficient (dimensionless); of the first substance listed, at infinite dilution; xn = mol fraction of the nth substance listed
# measurement parameters: 348.15 K; 101 kPa; Liquid; Chromatography; x1 = 0
observed property: activity coefficient
Number, no unit, nothing else.

- molecule: "C1=CCCCC1 [cyclohexene] + C[N+]1(CCCO)CCOCC1.O=S(=O)([N-]S(=O)(=O)C(F)(F)F)C(F)(F)F"
  activity coefficient: 18.6

Below: the item to evaluate.
Task item: Report measured activity coefficient; entry is C1CCCCC1 [cyclohexane] + C[N+]1(CCCO)CCOCC1.O=S(=O)([N-]S(=O)(=O)C(F)(F)F)C(F)(F)F
Reply: 42.2

====

# method summary: activity coefficient (dimensionless); of the first substance listed, at infinite dilution; xn = mol fraction of the nth substance listed
# measurement parameters: 358.15 K; 101 kPa; Liquid; Chromatography; x1 = 0
Classify as follows. Reported activity coefficient greater than or equal to 3: yes. Reported activity coefficient below: no.

Task item: Test whether the compound CCOCC [diethyl ether] + C[N+]1(CCCO)CCOCC1.O=S(=O)([N-]S(=O)(=O)C(F)(F)F)C(F)(F)F records activity coefficient of 3 or higher.
Reply: yes

Task item: Test whether the compound CCCO [propan-1-ol] + C[N+]1(CCCO)CCOCC1.O=S(=O)([N-]S(=O)(=O)C(F)(F)F)C(F)(F)F records activity coefficient of 3 or higher.
Reply: no

Task item: Test whether the compound C=CCCCCC [1-heptene] + C[N+]1(CCCO)CCOCC1.O=S(=O)([N-]S(=O)(=O)C(F)(F)F)C(F)(F)F records activity coefficient of 3 or higher.
Reply: yes

Task item: Test whether the compound c1ccccc1 [benzene] + C[N+]1(CCCO)CCOCC1.O=S(=O)([N-]S(=O)(=O)C(F)(F)F)C(F)(F)F records activity coefficient of 3 or higher.
Reply: no

Task item: Test whether the compound c1ccncc1 [pyridine] + C[N+]1(CCCO)CCOCC1.O=S(=O)([N-]S(=O)(=O)C(F)(F)F)C(F)(F)F records activity coefficient of 3 or higher.
Reply: no

Task item: Test whether the compound CCCCO [butan-1-ol] + C[N+]1(CCCO)CCOCC1.O=S(=O)([N-]S(=O)(=O)C(F)(F)F)C(F)(F)F records activity coefficient of 3 or higher.
Reply: no

Task item: Test whether the compound C#CCCCCCC [1-octyne] + C[N+]1(CCCO)CCOCC1.O=S(=O)([N-]S(=O)(=O)C(F)(F)F)C(F)(F)F records activity coefficient of 3 or higher.
Reply: yes

Task item: Test whether the compound C1CCCCCC1 [cycloheptane] + C[N+]1(CCCO)CCOCC1.O=S(=O)([N-]S(=O)(=O)C(F)(F)F)C(F)(F)F records activity coefficient of 3 or higher.
Reply: yes

====

Attribute: activity coefficient
# method summary: activity coefficient (dimensionless); of the first substance listed, at infinite dilution; xn = mol fraction of the nth substance listed
# measurement parameters: 318.15 K; 101 kPa; Liquid; Chromatography; x1 = 0
Number, no unit, nothing else.

# annotated cases, reported activity coefficient shown
- molecule: "CCCCO [butan-1-ol] + C[N+]1(CCCO)CCOCC1.O=S(=O)([N-]S(=O)(=O)C(F)(F)F)C(F)(F)F"
  observed property: "activity coefficient"
  value observed: 3.23
- molecule: "Cc1cccc(C)c1 [1,3-dimethylbenzene] + C[N+]1(CCCO)CCOCC1.O=S(=O)([N-]S(=O)(=O)C(F)(F)F)C(F)(F)F"
  observed property: "activity coefficient"
  value observed: 6.44

Task item: Report measured activity coefficient; entry is CCc1ccccc1 [ethylbenzene] + C[N+]1(CCCO)CCOCC1.O=S(=O)([N-]S(=O)(=O)C(F)(F)F)C(F)(F)F
Reply: 7.33

Task item: Report measured activity coefficient; entry is COC(C)(C)C [2-methoxy-2-methylpropane] + C[N+]1(CCCO)CCOCC1.O=S(=O)([N-]S(=O)(=O)C(F)(F)F)C(F)(F)F
Reply: 4.94

Task item: Report measured activity coefficient; entry is C#CCCCCC [1-heptyne] + C[N+]1(CCCO)CCOCC1.O=S(=O)([N-]S(=O)(=O)C(F)(F)F)C(F)(F)F
Reply: 20

Task item: Report measured activity coefficient; entry is CCC(=O)OC [methyl propanoate] + C[N+]1(CCCO)CCOCC1.O=S(=O)([N-]S(=O)(=O)C(F)(F)F)C(F)(F)F
Reply: 1.45

Task item: Report measured activity coefficient; entry is CCCCCCCC [octane] + C[N+]1(CCCO)CCOCC1.O=S(=O)([N-]S(=O)(=O)C(F)(F)F)C(F)(F)F
Reply: 315

Task item: Report measured activity coefficient; entry is CCCC(C)=O [pentan-2-one] + C[N+]1(CCCO)CCOCC1.O=S(=O)([N-]S(=O)(=O)C(F)(F)F)C(F)(F)F
Reply: 1.24

Task item: Report measured activity coefficient; entry is O [water] + C[N+]1(CCCO)CCOCC1.O=S(=O)([N-]S(=O)(=O)C(F)(F)F)C(F)(F)F
Reply: 1.43

Task item: Report measured activity coefficient; entry is CC(C)O [propan-2-ol] + C[N+]1(CCCO)CCOCC1.O=S(=O)([N-]S(=O)(=O)C(F)(F)F)C(F)(F)F
Reply: 1.83

Task item: Report measured activity coefficient; entry is C=CCCCC [hex-1-ene] + C[N+]1(CCCO)CCOCC1.O=S(=O)([N-]S(=O)(=O)C(F)(F)F)C(F)(F)F
Reply: 58.2

Task item: Report measured activity coefficient; entry is C1CCCCC1 [cyclohexane] + C[N+]1(CCCO)CCOCC1.O=S(=O)([N-]S(=O)(=O)C(F)(F)F)C(F)(F)F
Reply: 66

Task item: Report measured activity coefficient; entry is CCCC=O [butanal] + C[N+]1(CCCO)CCOCC1.O=S(=O)([N-]S(=O)(=O)C(F)(F)F)C(F)(F)F
Reply: 1.37

Task item: Report measured activity coefficient; entry is CC1CCCCC1 [methylcyclohexane] + C[N+]1(CCCO)CCOCC1.O=S(=O)([N-]S(=O)(=O)C(F)(F)F)C(F)(F)F
Reply: 102
